# PROTOCOL NOTES: Intrinsic clearance in Han Wistar rat liver microsomes at 1 uM by LC-MS/MS analysis
# Type: ADME
# REPORTED CONDITIONS: read-out: CLH
QUANTITY KIND: microsomal CLint at 1 µM (µL/min/mg)
Give bare numbers, in µL/min/mg.

Q) State its microsomal CLint at 1 µM for this compound: CNC(=O)CCCCC[C@H](NC(=O)c1cncs1)c1ncc(-c2ccc(-c3ccn[nH]3)cc2)[nH]1
A) 27

---

# SUBJECT OF TEST: Histone deacetylase 1 (Homo sapiens, UniProt Q13547)
# Sequence (Q13547 whole entry): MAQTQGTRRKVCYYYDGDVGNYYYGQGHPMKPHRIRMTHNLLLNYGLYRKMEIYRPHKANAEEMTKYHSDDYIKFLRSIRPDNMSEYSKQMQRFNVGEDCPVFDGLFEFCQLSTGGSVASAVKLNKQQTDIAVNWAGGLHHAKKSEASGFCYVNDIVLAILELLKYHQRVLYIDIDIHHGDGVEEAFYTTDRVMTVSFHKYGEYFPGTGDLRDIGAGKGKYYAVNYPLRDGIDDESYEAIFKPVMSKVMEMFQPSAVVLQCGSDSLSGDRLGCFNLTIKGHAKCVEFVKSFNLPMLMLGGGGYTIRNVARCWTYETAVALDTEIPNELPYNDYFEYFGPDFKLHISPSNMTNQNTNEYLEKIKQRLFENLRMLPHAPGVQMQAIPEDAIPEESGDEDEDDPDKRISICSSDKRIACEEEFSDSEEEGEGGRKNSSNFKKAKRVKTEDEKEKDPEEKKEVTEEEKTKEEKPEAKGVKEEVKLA
# PROTOCOL NOTES: Inhibition of recombinant human His-tagged HDAC1 expressed in insect cells preincubated for 10 mins followed by addition of FLUOR DE LYS as fluorescent substrate measured after 1 hr by spectrophotometry
QUANTITY KIND: IC50

>  <SMILES REPRESENTATION>
CNC(=O)CCCCC[C@H](NC(=O)c1cncs1)c1ncc(-c2ccc3cccnc3c2)[nH]1

>  <IC50>
> 5 µM

$$$$
>  <SMILES REPRESENTATION>
CNC(=O)CCCCC[C@H](NC(=O)c1cncs1)c1ncc(-c2ccc3cc(C(F)(F)F)ncc3c2)[nH]1

>  <IC50>
0.29 µM

$$$$

Would you kindly look at the next entry?
Q) State its IC50 for this compound: CNC(=O)CCCCC[C@H](NC(=O)c1cncs1)c1ncc(-c2cccc3cccnc23)[nH]1
A) > 2.5 µM

---

# Tested on: HDAC1
# PROTOCOL NOTES: Selectivity index, ratio of IC50 for HDAC1 in human HeLa cells to EC50 for Plasmodium falciparum 3D7 infected human erythrocytes
# Type: toxicity, cell-based
# REPORTED CONDITIONS: read-out: Ratio IC50/EC50
In plain terms, low selectivity ratio, meaning strictly below 20, gives 1.0, and everything else gives 0.0.

Solved entries:
>  <SMILES REPRESENTATION>
CNC(=O)CCCCC[C@H](NC(=O)c1cncs1)c1ncc(-c2ccc3ccccc3c2)[nH]1

>  <GROUP>
1.0

$$$$
>  <SMILES REPRESENTATION>
CNC(=O)CCCCC[C@H](NC(=O)c1cncs1)c1ncc(-c2ccc3[nH]ccc3c2)[nH]1

>  <GROUP>
1.0

$$$$
>  <SMILES REPRESENTATION>
CNC(=O)CCCCC[C@H](NC(=O)c1cncs1)c1ncc(-c2ccc(-n3cccn3)cc2)[nH]1

>  <GROUP>
0.0

$$$$
>  <SMILES REPRESENTATION>
CNC(=O)CCCCC[C@H](NC(=O)c1cncs1)c1ncc(-c2ccc3cc(OC)ncc3c2)[nH]1

>  <GROUP>
1.0

$$$$
>  <SMILES REPRESENTATION>
CCC(=O)CCCCC[C@H](NC(=O)C12CCN(CC1)CC2)c1ncc(-c2ccc3ccccc3c2)[nH]1

>  <GROUP>
1.0

$$$$

Q) Is selectivity ratio strictly under 20 for the entry CNC(=O)CCCCC[C@H](NC(=O)c1cncs1)c1ncc(-c2cc3ccccc3[nH]c2=O)[nH]1 ?
A) 0.0

Q) Is selectivity ratio strictly under 20 for the entry CNC(=O)CCCCC[C@H](NC(=O)C12CCN(CC1)CC2)c1ncc(-c2cc3ccccc3nc2OC)[nH]1 ?
A) 1.0

---

# PROTOCOL NOTES: Intrinsic clearance in CD1 mouse liver microsomes at 1 uM by LC-MS/MS analysis
# Format: ADME
# REPORTED CONDITIONS: read-out: CLH
QUANTITY KIND: microsomal CLint at 1 µM
Don't forget the unit after the number, please.

Q) State its microsomal CLint at 1 µM for this compound: CNC(=O)CCCCC[C@H](NC(=O)c1cncs1)c1ncc(-c2ccc(-c3ccn[nH]3)cc2)[nH]1
A) 12 µL/min/mg

---

# Test system: HDAC1
# PROTOCOL NOTES: Selectivity index, ratio of IC50 for HDAC1 in human HeLa cells to EC50 for Plasmodium falciparum 3D7 infected human erythrocytes
# Assay type: toxicity, cell-based
# REPORTED CONDITIONS: read-out: Ratio IC50/EC50
In plain terms, low selectivity ratio, meaning strictly below 10, gives Met, and everything else gives Not met.

Solved entries:
>  <SMILES REPRESENTATION>
CNC(=O)CCCCC[C@H](NC(=O)c1cncs1)c1ncc(-c2ccc3ccncc3c2)[nH]1

>  <GROUP>
Not met

$$$$
>  <SMILES REPRESENTATION>
CNC(=O)CCCCC[C@H](NC(=O)C12CCN(CC1)CC2)c1ncc(-c2ccc3ccccc3c2)[nH]1

>  <GROUP>
Not met

$$$$
>  <SMILES REPRESENTATION>
CNC(=O)CCCCC[C@H](NC(=O)c1cncs1)c1ncc(-c2ccc3ccnc(OC)c3c2)[nH]1

>  <GROUP>
Met

$$$$
>  <SMILES REPRESENTATION>
CNC(=O)CCCCC[C@H](NC(=O)c1cncs1)c1ncc(-c2ccc3cc(C(F)(F)F)ncc3c2)[nH]1

>  <GROUP>
Not met

$$$$

Q) Is selectivity ratio strictly under 10 for the entry CNC(=O)CCCCC[C@H](NC(=O)Cn1ccnn1)c1ncc(-c2cc3ccccc3nc2OC)[nH]1 ?
A) Met

Q) Is selectivity ratio strictly under 10 for the entry CNC(=O)CCCCC[C@H](NC(=O)c1cncs1)c1ncc(-c2ccc3[nH]ncc3c2)[nH]1 ?
A) Not met

Q) Is selectivity ratio strictly under 10 for the entry CNC(=O)CCCCC[C@H](NC(=O)c1cncs1)c1ncc(-c2ccc(-c3cscn3)cc2)[nH]1 ?
A) Not met

---

# PROTOCOL NOTES: Cytotoxicity against human HeLa cells assessed as cell viability after 72 hrs by CellTiter-Glo assay
# Assay type: cell-based
QUANTITY KIND: CC50 at 72 h

Q) State its CC50 at 72 h for this compound: CNC(=O)CCCCC[C@H](NC(=O)c1cncs1)c1ncc(-c2ccc(-c3ccn[nH]3)cc2)[nH]1
A) > 25 µM

---

# SUBJECT OF TEST: UniProt Q13547
# PROTOCOL NOTES: Inhibition of recombinant human His-tagged HDAC1 expressed in insect cells preincubated for 10 mins followed by addition of FLUOR DE LYS as fluorescent substrate measured after 1 hr by spectrophotometry
QUANTITY KIND: log10(IC50) (log10 of the value in µM)
Hello, just confirming the data are log10 of IC50 with units of µM.

Worked cases, log10(IC50) given:
>  <SMILES REPRESENTATION>
CNC(=O)CCCCC[C@H](NC(=O)c1cncs1)c1ncc(-c2ccc3cc(OC)ncc3c2)[nH]1

>  <log10(IC50)>
-0.41

$$$$
>  <SMILES REPRESENTATION>
CNC(=O)CCCCC[C@H](NC(=O)c1cncs1)c1ncc(-c2ccc(-c3ccn[nH]3)cc2)[nH]1

>  <log10(IC50)>
0.27

$$$$
>  <SMILES REPRESENTATION>
CNC(=O)CCCCC[C@H](NC(=O)C12CCN(CC1)CC2)c1ncc(-c2ccc3ccccc3c2)[nH]1

>  <log10(IC50)>
-0.47

$$$$

Please give log10(IC50) for each item listed below.
1. CNC(=O)CCCCC[C@H](NC(=O)c1cncs1)c1ncc(-c2ccc3ccccc3c2C)[nH]1
2. CNC(=O)CCCCC[C@H](NC(=O)c1cncs1)c1ncc(-c2ccc(-c3cscn3)cc2)[nH]1

A)
1: 1.38; 2: 0.33

---

# PROTOCOL NOTES: Clearance in NMRI mouse plasma 2 mg/kg, iv by LC-MS/MS analysis
# Type: ADME, organism-based
QUANTITY KIND: clearance
Don't forget the unit after the number, please.

Please give clearance for each item listed below.
1. CNC(=O)CCCCC[C@H](NC(=O)C12CCN(CC1)CC2)c1ncc(-c2cc3ccccc3nc2OC)[nH]1
2. CNC(=O)CCCCC[C@H](NC(=O)c1cncs1)c1ncc(-c2ccc(-c3ccn[nH]3)cc2)[nH]1

A)
10 mL/min/kg
247 mL/min/kg

---

# PROTOCOL NOTES: Cytotoxicity against human HUVEC cells assessed as cell viability after 72 hrs by CellTiter-Glo assay
# Assay type: cell-based
QUANTITY KIND: CC50 at 72 h

Q) State its CC50 at 72 h for this compound: CNC(=O)CCCCC[C@H](NC(=O)c1cncs1)c1ncc(-c2ccc(-c3ccn[nH]3)cc2)[nH]1
A) > 25 µM

---

# PROTOCOL NOTES: Clearance in NMRI mouse plasma
# Assay type: ADME, organism-based
QUANTITY KIND: clearance (mL/min/kg)
Answers are plain numbers, in mL/min/kg.

Q) State its clearance for this molecule: CNC(=O)CCCCC[C@H](NC(=O)C12CCN(CC1)CC2)c1ncc(-c2ccc3ccccc3c2)[nH]1
A) 60

---

# PROTOCOL NOTES: Intrinsic clearance in human liver microsomes at 1 uM by LC-MS/MS analysis
# Type: ADME
# REPORTED CONDITIONS: read-out: CLH
QUANTITY KIND: microsomal CLint at 1 µM

Q) State its microsomal CLint at 1 µM for this compound: CNC(=O)CCCCC[C@H](NC(=O)c1cncs1)c1ncc(-c2ccc(-c3ccn[nH]3)cc2)[nH]1
A) 19 µL/min/mg
